# Tested Target: HSD17B13 enzyme (Homo sapiens, UniProt Q7Z5P4)
# Construct: His; made in house; host or cells: E. coli
# Sequence (Q7Z5P4 20-300, species assumed): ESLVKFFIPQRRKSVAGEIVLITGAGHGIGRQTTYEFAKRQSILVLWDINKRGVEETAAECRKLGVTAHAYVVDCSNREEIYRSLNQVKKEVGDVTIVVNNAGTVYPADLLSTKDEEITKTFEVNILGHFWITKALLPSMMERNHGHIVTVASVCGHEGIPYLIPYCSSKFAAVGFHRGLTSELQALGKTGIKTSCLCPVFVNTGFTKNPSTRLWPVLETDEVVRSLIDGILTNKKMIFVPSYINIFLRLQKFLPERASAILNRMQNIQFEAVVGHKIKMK
# Assay Name: NADH detection assay (fluorescence based LTB3 assay) for HSD17B13 activity
# Format: biochemical
# Experimental Parameters: substrate 25 μM LTB3, 3 mM NAD+, 125 nM HSD17B13 enzyme, 1 hour at 26.5° C.
Readout Type: IC50

A selection of reference data follows.
• O=S(=O)(Nc1cccc(-c2cccc(Oc3ccc(F)c(O)c3)n2)c1)C1CC1 = 10 to 30 µM
• NS(=O)(=O)c1cccc(-c2cccc(Oc3ccc(F)c(O)c3)n2)c1 = 5 to 10 µM
• NS(=O)(=O)Nc1cc(Oc2cccc(-c3cccc(O)c3F)n2)ccc1F = > 30 µM
• Oc1cc(Oc2cccc(-c3ccc4cn[nH]c4c3)n2)ccc1F = 5 to 10 µM
• CNC(=O)c1cc(Oc2cccc(-c3cccc(OC)c3F)n2)ccc1F = > 30 µM

I'd like to know its IC50. The compound in question is `Oc1cccc(Oc2cccc(-c3cccc(O)c3F)n2)c1F` ≤ 5 µM

I'd like to know its IC50. The compound in question is `Oc1cc(Oc2cccc(-c3ccc(OCc4ccccc4)c(F)c3)n2)ccc1F` > 30 µM

I'd like to know its IC50. The compound in question is `CC(=O)N1CCN(S(=O)(=O)c2cccc(-c3cccc(Oc4ccc(F)c(O)c4)n3)c2)CC1` > 30 µM

I'd like to know its IC50. The compound in question is `Oc1cc(Oc2cccc(-c3ccc(C(F)(F)F)cc3)n2)ccc1F` 10 to 30 µM

I'd like to know its IC50. The compound in question is `O=S(=O)(Nc1cccc(-c2cccc(Oc3ccc(F)c(O)c3)n2)c1F)C1CC1` 5 to 10 µM

I'd like to know its IC50. The compound in question is `CN1CCOc2cc(-c3cccc(Oc4ccc(F)c(O)c4)n3)ccc21` ≤ 5 µM

I'd like to know its IC50. The compound in question is `CC(=O)Nc1nc2cc(-c3cccc(Oc4ccc(F)c(O)c4)n3)ccc2[nH]1` ≤ 5 µM

====

# Tested Target: HSD17B13 enzyme (Homo sapiens, UniProt Q7Z5P4)
# Construct: His; made in house; host or cells: E. coli
# Assay Name: NADH detection assay (fluorescence based LTB3 assay) for HSD17B13 activity
# Assay type: biochemical
# Experimental Parameters: substrate 25 μM LTB3, 3 mM NAD+, 125 nM HSD17B13 enzyme, 1 hour at 26.5° C.
Readout Type: IC50

A selection of reference data follows.
* COc1cc(Oc2cccc(-c3ccc4cn[nH]c4c3)n2)ccc1F | > 30 µM
* CS(=O)(=O)c1ccc(-c2cccc(Oc3ccc(F)c(O)c3)n2)cc1 | 10 to 30 µM
* Oc1cc(Oc2cccc(-c3ccc4scnc4c3)n2)ccc1F | ≤ 5 µM
* Oc1cc(Oc2nccc(-c3cccc(O)c3F)n2)ccc1F | 10 to 30 µM
* CS(=O)(=O)Nc1cc(Oc2cccc(-c3cccc(O)c3F)n2)ccc1F | > 30 µM
* Oc1cc(Oc2cccc(-c3cccs3)n2)ccc1F | 5 to 10 µM

Enter reported IC50 observed with HSD17B13 enzyme (Homo sapiens, UniProt Q7Z5P4) for `Oc1cc(Oc2cccc(-c3cc(F)cc(F)c3)n2)ccc1F` ≤ 5 µM

Enter reported IC50 observed with HSD17B13 enzyme (Homo sapiens, UniProt Q7Z5P4) for `Oc1cc(Oc2cccc(-c3cccc(F)c3O)n2)ccc1F` > 30 µM

Enter reported IC50 observed with HSD17B13 enzyme (Homo sapiens, UniProt Q7Z5P4) for `N#Cc1c(Oc2ccc(F)c(O)c2)cccc1-c1cccc(O)c1F` ≤ 5 µM

Enter reported IC50 observed with HSD17B13 enzyme (Homo sapiens, UniProt Q7Z5P4) for `Nc1nc2cc(-c3cccc(Oc4ccc(F)c(O)c4)n3)ccc2o1` 5 to 10 µM
